biological target: recombinant human IGFBP-3 (human, UniProt P17936 28-291); assay: BIAcore competition, IGFBP-3 to immobilized IGF-1
Sequence (P17936 28-291 limits assumed): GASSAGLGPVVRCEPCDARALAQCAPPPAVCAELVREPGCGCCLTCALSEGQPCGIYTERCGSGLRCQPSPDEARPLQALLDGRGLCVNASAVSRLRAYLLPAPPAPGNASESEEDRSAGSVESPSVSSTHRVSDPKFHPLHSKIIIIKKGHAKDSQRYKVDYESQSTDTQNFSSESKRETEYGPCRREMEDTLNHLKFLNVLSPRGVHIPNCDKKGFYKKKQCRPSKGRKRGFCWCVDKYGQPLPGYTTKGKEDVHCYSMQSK
Positions of bridges follow the written chain, without caps; N, C: chain ends. No end group written: not given here.
assay metric: IC50 (µM)

VCWPVAEWYLCN (disulfide 2-11) [BP3-17]: 9
AWEVCWDRHQGYICTTDS (disulfide 5-14) [BP3-4D3.11DEL]: 80
SEEVCWPVAEWYLCNMWG (disulfide 5-14) [BP3-01-ox]: 2
DMGVCADGPWMYVCEWTE (disulfide 5-14) [BP3-02-ox]: 12
TGVDCQCGPVHCVCMDWA (disulfide 7-12; disulfide 5-14 (inferred)) [BP3-06]: 5

Data provenance: patent US20090011988A1
